biological target: pooled human IgG (human); experiment: cell-based or functional assay; also: test concentration or dose not given here
PARAMETER MEASURED: Enzyme Activity Endpoint Assay (purified): scIgG (ng/µL)
State just the number; it will be interpreted in ng/µL.

Ask: // Enzyme Activity Endpoint Assay (purified): scIgG lookup, key: PRT-223 (enzyme) MEVVEVWPYGQNPNGKTEILSQTEDSESLQRLRDIEDFQAEKKKENVVYTKWLDGVDVKDHDFRKIVDGNIAYYATPLLNGRGFYDINKDFNRDSDKCAAAVAANMFHYWLDINRDNVDRFLRQNPEKHGIIELPDGQLKLSDFLNTYESDHGYRDKSKLFDFISNNFNGPVWTDKLLDNYINGYAYNYKYGRTIEDPTKNTSKINFFKEVFNEKILTNNHSIRNQNEFSDLLSEALYTGKAIGLSYGPAGLRHSLGHIISVWGADLDADGNVVAIYVTDSDDKKLTIGDERVGLKRYKISTDDENRLRLTAYEETHNTGGQIRGLWTLDTGKQAWADYFDKTEQTGTDQAEQLEHHHHHH
Reply: 316
